Conditions: in DMF, 323.15 K
Recorded endpoint: solubility (mole fraction)
No unit in the answer, only the number.

Enquiry: Form field: reported solubility (mole fraction) of Cc1c(C(=O)/C=C/c2ccccc2)[n+](=O)c2ccccc2n1[O-]
Return: 0.0163

----------
Details: in DMF, 318.15 K
Recorded endpoint: solubility (mole fraction)
No unit in the answer, only the number.

Enquiry: Form field: reported solubility (mole fraction) of Cc1c(C(=O)/C=C/c2ccccc2)[n+](=O)c2ccccc2n1[O-]
Return: 0.0145

----------
Details: in isopropanol, 318.15 K
Recorded endpoint: solubility (mole fraction)
No unit in the answer, only the number.

Enquiry: Form field: reported solubility (mole fraction) of Cc1c(C(=O)/C=C/c2ccccc2)[n+](=O)c2ccccc2n1[O-]
Return: 0.000437

----------
Settings: in isopropanol, 328.15 K
Recorded endpoint: solubility (mole fraction)
No unit in the answer, only the number.

Enquiry: Form field: reported solubility (mole fraction) of Cc1c(C(=O)/C=C/c2ccccc2)[n+](=O)c2ccccc2n1[O-]
Return: 0.000668

----------
Details: in DMSO, 318.15 K
Recorded endpoint: solubility (mole fraction)
No unit in the answer, only the number.

Enquiry: Form field: reported solubility (mole fraction) of Cc1c(C(=O)/C=C/c2ccccc2)[n+](=O)c2ccccc2n1[O-]
Return: 0.0132

----------
Settings: in isopropanol, 308.15 K
Recorded endpoint: solubility (mole fraction)

Enquiry: Form field: reported solubility (mole fraction) of Cc1c(C(=O)/C=C/c2ccccc2)[n+](=O)c2ccccc2n1[O-]
Return: 0.000278

----------
Details: in ethanol, 323.15 K
Recorded endpoint: solubility (mole fraction)

Enquiry: Form field: reported solubility (mole fraction) of Cc1c(C(=O)/C=C/c2ccccc2)[n+](=O)c2ccccc2n1[O-]
Return: 0.000512

----------
Details: in DMF, 288.15 K
Recorded endpoint: solubility (mole fraction)

Enquiry: Form field: reported solubility (mole fraction) of Cc1c(C(=O)/C=C/c2ccccc2)[n+](=O)c2ccccc2n1[O-]
Return: 0.00639

----------
Conditions: in isopropanol, 293.15 K
Recorded endpoint: solubility (mole fraction)
No unit in the answer, only the number.

Enquiry: Form field: reported solubility (mole fraction) of Cc1c(C(=O)/C=C/c2ccccc2)[n+](=O)c2ccccc2n1[O-]
Return: 0.000133

----------
Settings: in water, 288.15 K
Recorded endpoint: solubility (mole fraction)
No unit in the answer, only the number.

Enquiry: Form field: reported solubility (mole fraction) of Cc1c(C(=O)/C=C/c2ccccc2)[n+](=O)c2ccccc2n1[O-]
Return: 2.93e-06

----------
Conditions: in DMF, 313.15 K
Recorded endpoint: solubility (mole fraction)
No unit in the answer, only the number.

Enquiry: Form field: reported solubility (mole fraction) of Cc1c(C(=O)/C=C/c2ccccc2)[n+](=O)c2ccccc2n1[O-]
Return: 0.0127

----------
Settings: in DMF, 328.15 K
Recorded endpoint: solubility (mole fraction)
No unit in the answer, only the number.

Enquiry: Form field: reported solubility (mole fraction) of Cc1c(C(=O)/C=C/c2ccccc2)[n+](=O)c2ccccc2n1[O-]
Return: 0.0187

----------
Conditions: in ethanol, 318.15 K
Recorded endpoint: solubility (mole fraction)

Enquiry: Form field: reported solubility (mole fraction) of Cc1c(C(=O)/C=C/c2ccccc2)[n+](=O)c2ccccc2n1[O-]
Return: 0.000425

----------
Conditions: in DMF, 308.15 K
Recorded endpoint: solubility (mole fraction)

Enquiry: Form field: reported solubility (mole fraction) of Cc1c(C(=O)/C=C/c2ccccc2)[n+](=O)c2ccccc2n1[O-]
Return: 0.0111

----------
Settings: in ethanol, 293.15 K
Recorded endpoint: solubility (mole fraction)
No unit in the answer, only the number.

Enquiry: Form field: reported solubility (mole fraction) of Cc1c(C(=O)/C=C/c2ccccc2)[n+](=O)c2ccccc2n1[O-]
Return: 0.000151

----------
Settings: in water, 298.15 K
Recorded endpoint: solubility (mole fraction)
No unit in the answer, only the number.

Enquiry: Form field: reported solubility (mole fraction) of Cc1c(C(=O)/C=C/c2ccccc2)[n+](=O)c2ccccc2n1[O-]
Return: 3.95e-06

----------
Conditions: in DMSO, 328.15 K
Recorded endpoint: solubility (mole fraction)
No unit in the answer, only the number.

Enquiry: Form field: reported solubility (mole fraction) of Cc1c(C(=O)/C=C/c2ccccc2)[n+](=O)c2ccccc2n1[O-]
Return: 0.0167

----------
Settings: in DMSO, 313.15 K
Recorded endpoint: solubility (mole fraction)
No unit in the answer, only the number.

Enquiry: Form field: reported solubility (mole fraction) of Cc1c(C(=O)/C=C/c2ccccc2)[n+](=O)c2ccccc2n1[O-]
Return: 0.0117

----------
Conditions: in DMSO, 298.15 K
Recorded endpoint: solubility (mole fraction)
No unit in the answer, only the number.

Enquiry: Form field: reported solubility (mole fraction) of Cc1c(C(=O)/C=C/c2ccccc2)[n+](=O)c2ccccc2n1[O-]
Return: 0.00807

----------
Conditions: in DMF, 298.15 K
Recorded endpoint: solubility (mole fraction)
No unit in the answer, only the number.

Enquiry: Form field: reported solubility (mole fraction) of Cc1c(C(=O)/C=C/c2ccccc2)[n+](=O)c2ccccc2n1[O-]
Return: 0.00856

----------
Settings: in ethanol, 313.15 K
Recorded endpoint: solubility (mole fraction)
No unit in the answer, only the number.

Enquiry: Form field: reported solubility (mole fraction) of Cc1c(C(=O)/C=C/c2ccccc2)[n+](=O)c2ccccc2n1[O-]
Return: 0.000351
